# Assayed System: T1, human IgE (human, UniProt P01854 1-428)
# T1 construct: written under the same molecule; also called IgE (Abcam ab65866); soluble IgE
# T1 sequence (P01854 other isoform, or with tags, fused parts or gaps limits assumed, form in doubt): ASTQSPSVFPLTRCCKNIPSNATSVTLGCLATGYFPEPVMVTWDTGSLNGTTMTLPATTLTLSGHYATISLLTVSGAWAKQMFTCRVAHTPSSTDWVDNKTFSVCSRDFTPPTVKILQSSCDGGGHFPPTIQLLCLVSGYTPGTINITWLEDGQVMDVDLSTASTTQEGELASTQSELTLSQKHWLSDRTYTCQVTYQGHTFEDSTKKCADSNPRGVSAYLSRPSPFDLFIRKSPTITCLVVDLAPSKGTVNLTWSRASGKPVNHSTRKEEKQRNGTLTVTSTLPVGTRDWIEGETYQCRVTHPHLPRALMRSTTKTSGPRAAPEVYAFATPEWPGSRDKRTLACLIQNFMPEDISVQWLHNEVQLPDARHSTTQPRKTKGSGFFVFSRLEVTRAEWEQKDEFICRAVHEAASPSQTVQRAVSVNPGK
# Method Notes: ELISA, clone lysate on IgE-coated plate
# Text: Each amino acid in CDR1 (SEQ ID NO:3), CDR2 (SEQ ID NO:68), and CDR3 (SEQ ID NO:74) was randomly replaced such that the 20 natural amino acids would likely all have been sampled at every position. […] The heat maps represent the relative binding for each clone determined by the range of OD values from the ELISA background to WT CDR binding (FIGS. 16A-16C). […]
Readout: R1 Screening OD450
When you answer, write just the number.

Task: // fetch R1 Screening OD450 given entry 33-2A2 (VHH) VHH: EVQLLESGGGEVQPGGSLRLSCVASGLTFSSYNMGWLRQAPGKEREFVGLSGSSSTSTYYAESVKGRFTISRDNAKNTVYLQMTSLRAEDTAVYYCAARRLKSTYWSDRSWDFWGQGTLVTVEP
Output: 1.01

Task: // fetch R1 Screening OD450 given entry 3-1B10 (VHH, also called hzB10v40 VHH, CDR1 site 3 T to K) VHH: EVQLLESGGGEVQPGGSLRLSCVASGLKFSSYNMGWLRQAPGKEREFVGLSGSSSTSTYYAESVKGRFTISRDNAKNTVYLQMTSLRAEDTAVYYCAARRLLSTYWSDRSWDFWGQGTLVTVEP
Output: 0.904

Task: // fetch R1 Screening OD450 given entry 9B1 (VHH, also called hzB10v40 VHH, CDR1 site 9 M to V) VHH: EVQLLESGGGEVQPGGSLRLSCVASGLTFSSYNVGWLRQAPGKEREFVGLSGSSSTSTYYAESVKGRFTISRDNAKNTVYLQMTSLRAEDTAVYYCAARRLLSTYWSDRSWDFWGQGTLVTVEP
Output: 0.879

Task: // fetch R1 Screening OD450 given entry 32F11 (VHH) VHH: EVQLLESGGGEVQPGGSLRLSCVASGLTFSSYNMGWLRQAPGKEREFVGLSGSSSTSTYYAESVKGRFTISRDNAKNTVYLQMTSLRAEDTAVYYCAARRRLSTYWSDRSWDFWGQGTLVTVEP
Output: 0.924
